- ASSAY DETAILS: Toxicity liver stage against HepG2, at 10uM
- Assay type: cell-based
- Design: test concentration 10 uM, cell line HepG2-A16-CD81EGFP
- CONDITION PARAMETERS: human, HepG2-A16-CD81EGFP cells; read-out: INHIBITION
PROPERTY MEASURED: cytotoxicity at 10 µM (%)
Expressed in %, but write only the number.

Worked cases, answers included:
O=C(NCc1cccnc1N1CCc2ccccc2C1)c1cnc[nH]1; 5.97
CCc1noc(CS(=O)(=O)c2cccc(OC)c2)n1; 6.7
Cc1nn(C)c(Cl)c1CNCc1cccnc1N1CCN(C)CC1; -9
CCOc1cc(CNC(=O)NCc2nc(C)c(C)s2)ccn1; -2.49
COc1ncc(C)cc1NC(=O)COc1ccccc1F; -9.52

Query string: Would you kindly share the measured cytotoxicity at 10 µM for Cn1cc(-c2cnc(N3CCOCC3)nc2)cc1C(=O)O ?
Result string: -14.6
